- Tested on: Plasmodium falciparum
- assay notes: NOVARTIS: Inhibition of Plasmodium falciparum 3D7 (drug-susceptible) proliferation in erythrocyte-based infection assay
- Type: functional, organism-based
- test parameters: Plasmodium falciparum, 3D7
measurement kind: pEC50
The value called pEC50 is obtained by taking minus log10 of the concentration in mol/L.

For orientation, consider the following solved cases.
[[record]]
molecule = "Cc1nn(CC(O)Cn2c3ccc(Br)cc3c3cc(Br)ccc32)c(C)c1Br (stereo unspecified)"
experimental_target = "Plasmodium falciparum"
value_measured = 6.11

[[record]]
molecule = "CN1C(=O)N(C)C(NNC(N)=S)C1NNC(N)=S (stereo unspecified)"
experimental_target = "Plasmodium falciparum"
value_measured = 8.05

[[record]]
molecule = "Cc1ccc(-c2c3c(nc4sc(C(=O)Nc5cccc(C)c5)c(N)c24)CCC3)cc1"
experimental_target = "Plasmodium falciparum"
value_measured = 6.00

[[record]]
molecule = "Clc1ccc(CCNC2CCN(CCc3ccccc3)CC2)cc1"
experimental_target = "Plasmodium falciparum"
value_measured = 6.82

[[record]]
molecule = "O=C(Nc1ccccc1)Nc1ccc(S(=O)(=O)Nc2ccc(Br)cc2)cc1"
experimental_target = "Plasmodium falciparum"
value_measured = 6.18


For CC(C)c1cccc(C(C)C)c1NC(=O)N(Cc1ccccc1)C(C)c1nc2ccccc2c(=O)n1-c1ccc(Cl)cc1 (stereo unspecified) on Plasmodium falciparum, measured pEC50 was 6.01

For COC(=O)C1=C(C)NC2=C(C(=O)CC(c3ccc(Cl)cc3)C2)C1c1ccccc1 (stereo unspecified) on Plasmodium falciparum, measured pEC50 was 6.47

For CC1Cc2ccc(F)cc2CN1C(=O)c1ccc(COc2ccccc2Br)o1 (stereo unspecified) on Plasmodium falciparum, measured pEC50 was 5.08

For `NC(=O)NN=C1c2cc(S(=O)(=O)NCc3ccco3)ccc2-c2ccc(S(=O)(=O)NCc3ccco3)cc21` on Plasmodium falciparum, measured pEC50 was 5.93

For Cc1cccc(NC(c2ccncc2)c2ccc3cccnc3c2O)n1 (stereo unspecified) on Plasmodium falciparum, measured pEC50 was 6.17
